Molecular target: recombinant GSK3β kinase (Homo sapiens (Human))
Sequence (P49841 whole entry): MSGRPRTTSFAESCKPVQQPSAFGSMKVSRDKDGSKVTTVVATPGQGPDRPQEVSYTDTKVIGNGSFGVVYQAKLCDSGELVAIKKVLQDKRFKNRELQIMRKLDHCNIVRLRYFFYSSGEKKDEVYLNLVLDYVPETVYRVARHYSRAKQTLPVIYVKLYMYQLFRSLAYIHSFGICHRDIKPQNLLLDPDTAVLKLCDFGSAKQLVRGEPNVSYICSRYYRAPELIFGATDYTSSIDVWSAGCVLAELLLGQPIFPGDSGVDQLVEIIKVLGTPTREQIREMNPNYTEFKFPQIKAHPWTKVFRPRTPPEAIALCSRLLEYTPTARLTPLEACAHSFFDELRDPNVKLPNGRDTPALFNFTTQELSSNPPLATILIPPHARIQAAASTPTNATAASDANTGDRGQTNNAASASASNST
Test: GSK3β kinase assay (Ser/Thr 09 peptide Z-lyte FRET);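 also: kinase activity read as coumarin to fluorescein emission ratio, 11-point threefold dilutions from 10 µM to 0.0003 µM in duplicate, unphosphorylated and phosphorylated peptide as 0% and 100% controls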
Type: biochemical
Conditions: 46 μM ATP, 1 h room temperature
Note to self: EC50 under 10 nM means YES, ties and anything higher get NO.

Look over these answered cases.
molecule | group
CC(C(=O)Nc1cc2cc(-c3cnn(C)c3)ccc2cn1)N1CCCC1 (centres unmarked) [Compound 288] | NO
CCN(CC)c1ncc(-c2ccc3cnc(NC(=O)CN4CCC(F)CC4)cc3c2)s1 [Compound 1047] | NO
CN1CCC(n2cc(-c3ccc4cnc(NC(=O)C5CCCCC5)cc4c3)cn2)CC1 [Compound 969] | NO
Cn1cc(-c2ccc3cnc(NC(=O)C4CCN(CC5(C(F)(F)F)CC5)CC4)cc3c2)nn1 [Compound 470] | YES
Cn1cc(-c2ccc3cnc(NC(=O)C4CCN(CCF)CC4)cc3c2)cn1 [Compound 81] | NO

Query :: Would you kindly verify if EC50 of Cn1cc(-c2ccc3cnc(NC(=O)[C@@H]4CCCNC4)cc3c2)nn1 [Compound 481] is strictly less than 10 nM?
Result :: YES

Query :: Quick check: does Cc1nnc(-c2ccc3cnc(NC(=O)C4CCN(CCC(F)(F)F)CC4)cc3c2)n1C [Compound 279] have EC50 under 10 nM?
Result :: NO

Query :: Item CN(C)C1CCC(C(=O)Nc2cc3cc(-c4cnn(C)c4)ccc3cn2)CC1 (stereo in doubt) [Compound 1081] : EC50 beneath 10 nM, strictly?
Result :: NO

----------
Tested on: Wnt pathway (Sp5-Luc reporter, TCF/LEF binding sites) in SW480 colon carcinoma cells
Test: Screening assay for Wnt activity: Sp5-Luc reporter gene assay;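 also: firefly luciferase luminescence read in stably transduced SW480 cells carrying the Sp5 promoter reporter with eight TCF/LEF sites, compounds given in 0.1% DMSO final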
Type: cell-based, human
Details: Homo sapiens; Sp5-Luc reporter, SW480 cells, 36 to 48 hours
Items are presented alongside their recorded pEC50.
Scale for pEC50: -log10 of concentration given in mol/L; no unit attached.

// known answers, use as guide
line.notation | result.number
Cn1cc(-c2ccc3cnc(NC(=O)C4CCN(Cc5ncccn5)CC4)cc3c2)cn1 | 5.88
CCN1CCN(CC(=O)Nc2cc3cc(-c4cnn(C)c4)ccc3cn2)CC1 | 5.60
Cn1cc(-c2ccc3cnc(NC(=O)[C@@H]4CCCNC4)cc3c2)cn1 | 6.13
CN1CCC(C(=O)Nc2cc3cc(-c4nnc(N(C)C)o4)ccc3cn2)CC1 | 6.19
CNc1ncc(-c2ccc3cnc(NC(=O)C4CCN(C)CC4)cc3c2)s1 | 6.11
CO[C@H]1CC[C@H](C(=O)Nc2cc3cc(-c4nnc(C)s4)ccc3cn2)CC1 | 5.35

In the following, a different compound is considered.
Query :: For [2H]C([2H])([2H])N1CCN(CC(=O)Nc2cc3cc(-c4cnn(C)c4)ccc3cn2)CC1 , write its pEC50.
Result :: 5.50

----------
Tested on: Tau phosphorylation at Ser396 (pSer396)
Assay: Tau phosphorylation assay (pSer396 ELISA / western blot) in SH-SY5Y cells;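 also: EC50 for reduction of Tau pSer396 in lysed cells, measured by colorimetric ELISA or chemiluminescent western blot, both using the same pSer396 antibody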
Assay type: cell-based, human
Details: Homo sapiens; SH-SY5Y cells, overnight (16-18 h) exposure; read-out: pSer396 Tau EC50
Classify: 1 (yes) when EC50 is strictly less than 800 nM; 0 (no) when EC50 is not.

molecule | group
Cc1cc(-c2ccc3cnc(NC(=O)C4CCN(CCC(F)(F)F)CC4)cc3c2)on1 | 0 (no)
C[C@H]1COCCN1CC(=O)Nc1cc2cc(-c3cnn(C)c3)ccc2cn1 | 0 (no)
Cc1nnc(-c2ccc3cnc(NC(=O)CN4CCCC4)cc3c2)s1 | 1 (yes)
Cn1cc(-c2ccc3cnc(NC(=O)C4CCNCC4)cc3c2)cn1 | 1 (yes)

Moving on to another molecule below.
Query :: Bench note: check whether CCN(CC)CC(=O)Nc1cc2cc(-c3cnn(C)c3CN3CCCCC3)ccc2cn1 shows EC50 below 800 nM
Result :: 1 (yes)
